Test system: MS2 coat protein
assay-explanation: apparent KD of MS2 coat protein; designed switch direction (-1 OFF switch, 1 ON switch): -1; higher = weaker reporter binding
test-parameters: input ligand: none
Hi, to clarify the labels: 1 covers apparent KD of MS2 coat protein from 30 nM upward, -1 covers anything below 30 nM.

Solved cases below.
biosequence: AAGUAGACAGUGAGGAUAUAGGUGGAAUGACCCAUUUAGAAGGUACAUGAGGAUCACCCAUGUGGGUAAUGUCG [Brourd's EX4 #27] (Eterna round: R97, puzzle: Brourd's mod of Exclusion 4)
answer-label: 1

biosequence: CGAGCUAAUGUGAGGAUAUACCUAUGGAUACAUAGGUAGAAGGCACAUGAGGAUCACCCAUGUCCUAUAGCUCG [jl-bmx4-4.55] (Eterna round: R97, puzzle: Brourd's mod of Exclusion 4)
answer-label: 1

biosequence: CCAACCAGAGGAUAUGCGCAUAGAUCAGACUUUGUUUCUGAACAUGAGGAUCACCCAUGUAGAAGGCUGUAACC [Ex2 #86] (Eterna round: R97, puzzle: Exclusion 2)
answer-label: -1

stdin: hey, is apparent KD of MS2 coat protein for this one >= 30 nM? CCGGCUGCUGUGAGGAUAUGCCUGUGGGUGCGUGGGCAGAAGGCACAUGAGGAUCACCCAUGUCCUGCGGUCCC [salish99_bmx4_r4_114] (Eterna round: R97, puzzle: Brourd's mod of Exclusion 4)
stdout: -1

stdin: hey, is apparent KD of MS2 coat protein for this one >= 30 nM? GCAGCAUAGUUUACUAACUGUUACAUGAGGAUCACCCAUGUCUAGGAUAUGGUCUGGAUUACAGGCCAGAAGGAGACAAGCUGC [Eli exng3 - 034] (Eterna round: R96, puzzle: Exclusion NG 3)
stdout: -1

stdin: hey, is apparent KD of MS2 coat protein for this one >= 30 nM? UAUAUACAUGAGGAUCACCCAUGUAAGGAUAUGCUUUAUUAUUAUUAUUAUUAUUAUUGCAGAAGGUACAUUAU [LRO-Excl01-05] (Eterna round: R97, puzzle: Exclusion 1)
stdout: 1
